Catalogue of molecules with associated TGI
Test system: CCRF-CEM leukemia
experimentDescription: NCI tumour cell line growth inhibition, 48 h

Known TGI results, listed for orientation:
>>> result("N=c1c2ccccc2nc2oc3ccc(Cl)cc3n12")
"> 100 µM"
>>> result("Nc1nc(Cl)nc2c1ncn2C1CCC(CO)O1 (stereo unspecified)")
"> 100 µM"
>>> result("COc1cc(C2SC(N)=Nc3c2c(C)nn3C(=O)Cc2ccccc2)ccc1O (stereo unspecified)")
"> 100 µM"
>>> result("CCOC(=O)c1cc(Cl)ccc1OC(N)=O")
"> 100 µM"
>>> result("O=C(NO)c1ccc(OCc2ccccc2)cc1")
"> 100 µM"
>>> result("CSc1ccc2c(c1)C(=O)c1c-2n(CCCN=[N+]=[N-])c(=O)c2cc([N+](=O)[O-])ccc12")
"10.9 µM"
>>> result("O=C(Nc1ccc(Cl)cc1Cl)/C(Cl)=C1/Sc2ccccc2NC1=O")
"83.4 µM"
>>> result("CCNC(=O)Cc1nc2c(=O)[nH]cnc2n1C1OC(CO)C(O)C1O (stereo unspecified)")
"> 100 µM"

**Query** # get_value(readout='TGI', item= "COc1ccc(-c2oncc2-c2cc(OC)c3c(c2)OCO3)cc1" )
**Result** > 43.6 µM

**Query** // returns reported TGI for input "Clc1ccc(CCn2cncn2)c(Cl)c1"
**Result** > 100 µM

**Query** May I ask what TGI has been recorded for "O=C(Nc1ccc(F)cc1)c1cc2ccc(O)cc2oc1=Nc1cccc(F)c1" ?
**Result** 71.8 µM

// data source = PubChem BioAssay (NCI)
